Hello, the source for this data is PubChem BioAssay (EPA / NIEHS), in case you need it.

Read-out: ABC Transporter (ABCC2), ABCC2 (gene 1244)
METHOD: LTEA_HepaRG_ABCC2: Life Technologies and Expression Analysis (LTEA) Assay for ABC Transporter (ABCC2) using HepaRG (AID 2283464)
RUN_PARAMETERS: mRNA level, 48 h; actives raise or lower the signal
Procedure: LTEA_HepaRG is a cell based, multiplexed-readout assay that uses HepaRG, a human liver cell line, with measurements taken at 48 hours after chemical dosing on a 96-well plate.LTEA_HepaRG_ABCC2 is one of 102 assay component(s) measured in the LTEA HepaRG cell culture assay. It is a marker of Steatosis/NR mediated transport.Data from the assay component LTEA_HepaRG_ABCC2 was analyzed into 1 endpoint. […]
The source made the active and inactive calls. The calls were made as follows: active = hit-call score of the fitted dose curve at least 0.9, where 1 is the maximum; inactive = score below 0.9.
MEASURED_QUANTITY: AC50

                                   compound  reported_measurement
0  CC(Oc1ccc(Cl)cc1Cl)C(=O)O (stereo not given)              inactive
1            COP(=S)(OC)Oc1nc(Cl)c(Cl)cc1Cl              inactive
2                CC1=C(C(=O)Nc2ccccc2)SCCO1              inactive
3  CCOc1cc(Oc2ccc(C(F)(F)F)cc2Cl)ccc1[N+](=O)[O-]              inactive
4  CCCC1COC(Cn2cncn2)(c2ccc(Cl)cc2Cl)O1 (stereo not given)      68.5 µM (active)

====

METHOD: APR_HepG2_MicrotubuleCSK_72hr: Apredica 72-hour HepG2 Assay for Microtubule CSK Stabilty (AID 2282919)
RUN_PARAMETERS: HepG2 microtubule cytoskeleton, high-content imaging, actives raise or lower the signal
The source made the active and inactive calls. How the source made its calls: active means hit-call score of the fitted dose curve at least 0.9, where 1 is the maximum; inactive means score below 0.9.
Classes used: Yes (active), No (inactive)

                                 cpd_smiles  label
0                CC1=C(C(=O)Nc2ccccc2)SCCO1     No
1              CON(C)C(=O)Nc1ccc(Cl)c(Cl)c1     No
2                      CCNc1nc(Cl)nc(NCC)n1     No
3  CCOc1cc(Oc2ccc(C(F)(F)F)cc2Cl)ccc1[N+](=O)[O-]    Yes
4  CCCN(CCC)c1c([N+](=O)[O-])cc(S(N)(=O)=O)cc1[N+](=O)[O-]     No
5        Fc1ccc(Oc2ccnc3cc(Cl)cc(Cl)c23)cc1     No
6  C=CCC1=C(C)[C@@H](OC(=O)[C@@H]2[C@@H](C=C(C)C)C2(C)C)CC1=O    Yes
7                O=C(O)COc1nc(Cl)c(Cl)cc1Cl     No
8                    CN(C)C(=S)SSC(=S)N(C)C    Yes
9                   CCNc1nc(Cl)nc(NC(C)C)n1     No

====

Read-out: matrix metalloproteinase-10 (MMP10), MMP10 (gene 4319)
METHOD: LTEA_HepaRG_MMP10: Life Technologies and Expression Analysis (LTEA) Assay for matrix metalloproteinase-10 (MMP10) using HepaRG (AID 2283517)
RUN_PARAMETERS: mRNA level, 48 h; actives raise or lower the signal
Calls of active or inactive are those of the source. The calls were made as follows: active = hit-call score of the fitted dose curve at least 0.9, where 1 is the maximum; inactive = score below 0.9.
MEASURED_QUANTITY: outcome

In [3]: df
Out[3]:
                                 cpd_smiles  reported_measurement
0    COc1ccc(C(c2ccc(OC)cc2)C(Cl)(Cl)Cl)cc1              inactive
1  Cc1ccc(-c2c(Cl)nc(C#N)n2S(=O)(=O)N(C)C)cc1              inactive
2        Fc1ccc(Oc2ccnc3cc(Cl)cc(Cl)c23)cc1              inactive
